- study target: T1, recombinant human GM-CSF (rhGM-CSF), produced in E. coli (human, UniProt P04141 18-144)
- T1 construct: The ELISA of 2.5.2 and the TF-1 proliferation assays say only rhGM-CSF without naming the preparation; they are assigned to this molecule; also called human GM-CSF antigen; recombinant human granulocyte macrophage colony stimulating factor
- T1 sequence (P04141 18-144 limits assumed): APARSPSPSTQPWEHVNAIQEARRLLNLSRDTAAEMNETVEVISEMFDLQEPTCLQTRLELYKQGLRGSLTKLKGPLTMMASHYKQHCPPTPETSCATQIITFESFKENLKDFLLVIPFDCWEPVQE
- protocol: SPR off-rate ranking, purified periplasmic preparation over immobilized rhGM-CSF; clone listed among the sequenced hits in the 2nd table
value kind: binding result

>>> data_value("half-human SCA B33oN-115 (scFv, Expressed from pComb3H5BFlag/His) scFv: ELQLVEQSGAALVKPGDSVKMSCKASGYPFTDYIVHWVKQSHGKSLDWIGYINPYSGDTKFNEKFKSKATLTVDKSSSTAYMEFSRLTSEDSAIYYCARSGLIAVYFDYWGQGTTVTVSSGGGGSGGGGSGGGGSELVLTQSPDFQSVTPKEKVTITCRASQSIGSSLHWYQQKPDQSPKLLIKFASQSLSGVPSRFSGSGSGTDFTLTISSLQPEDFATYYCQQSYSTPSTFGPGTKVEIKTGDYKDDDDKHHHHHH")
"binds"
>>> data_value("half-human SCA B33oN-66 (scFv, Expressed from pComb3H5BFlag/His) scFv: ELQLVEQSGAALVKPGDSVKMSCKASGYPFTDYIVHWVKQSHGKSLDWIGYINPYSGDTKFNEKFKSKATLTVDKSSSTAYMEFSRLTSEDSAIYYCARSGLIAVYFDYWGQGTTVTVSSGGGGSGGGGSGGGGSELVLTQSPDFQSVTPKEKVTITCRASQSIGSNLHWYQQKPDQSPKLLIKFASQSFSGVPSRFSGSGSGTDFSLTINSLEAEDAATYYCQQSYSTPPTFGQGTRLEIKTGDYKDDDDKHHHHHH")
"binds"
>>> data_value("half-human SCA B33oN-21 (scFv, Expressed from pComb3H5BFlag/His) scFv: ELQLVEQSGAALVKPGDSVKMSCKASGYPFTDYIVHWVKQSHGKSLDWIGYINPYSGDTKFNEKFKSKATLTVDKSSSTAYMEFSRLTSEDSAIYYCARSGLIAVYFDYWGQGTTVTVSSGGGGSGGGGSGGGGSELVLTQSPDFQSVTPKEKVTITCRASQSIGSSLHWYQQKPDQSPKLLIKFASQSLSGVPSRFSGSGSGTDFTLTINSLEAEDAATYYCQQSYSTPWTFGQGTKLEIKTGDYKDDDDKHHHHHH")
"binds"
